Target: T1, monkey GPC3-His protein (monkey)
T1 construct: Bought recombinant protein; also called monkey GPC3 protein
Test: SPR, antibody captured on Protein A chip, monkey GPC3-His analyte;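 further: run at 25 °C with 240 s association and up to 600 s dissociation, double-referenced, kinetics fitted to a 1:1 Langmuir binding model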
// values below are reported koff
reported.endpoint: koff (s⁻¹)

- binder: "F2.23.8 (antibody, human IgG1, kappa, V domains shown, Human-murine chimeric antibody) VH: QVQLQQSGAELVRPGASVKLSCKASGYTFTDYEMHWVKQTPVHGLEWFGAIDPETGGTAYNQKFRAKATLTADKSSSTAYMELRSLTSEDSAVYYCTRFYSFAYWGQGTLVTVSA VL: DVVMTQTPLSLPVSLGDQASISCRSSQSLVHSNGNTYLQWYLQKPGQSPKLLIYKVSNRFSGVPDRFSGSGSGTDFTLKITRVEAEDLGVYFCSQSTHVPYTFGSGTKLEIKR"
  experimental.value: 0.0038
- binder: "F1.120.16 (antibody, human IgG1, kappa, V domains shown, Human-murine chimeric antibody) VH: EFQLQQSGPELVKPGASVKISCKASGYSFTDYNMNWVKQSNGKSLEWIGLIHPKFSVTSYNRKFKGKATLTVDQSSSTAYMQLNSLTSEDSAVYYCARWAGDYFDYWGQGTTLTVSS VL: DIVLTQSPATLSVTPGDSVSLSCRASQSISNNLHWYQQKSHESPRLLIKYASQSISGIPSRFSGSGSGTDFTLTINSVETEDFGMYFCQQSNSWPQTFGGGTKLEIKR"
  experimental.value: 0.000639
- binder: "F3.81.19 (antibody, human IgG1, kappa, V domains shown, Human-murine chimeric antibody) VH: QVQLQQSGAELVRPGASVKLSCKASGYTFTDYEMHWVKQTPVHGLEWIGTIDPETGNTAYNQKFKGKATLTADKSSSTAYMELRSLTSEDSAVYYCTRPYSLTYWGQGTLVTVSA VL: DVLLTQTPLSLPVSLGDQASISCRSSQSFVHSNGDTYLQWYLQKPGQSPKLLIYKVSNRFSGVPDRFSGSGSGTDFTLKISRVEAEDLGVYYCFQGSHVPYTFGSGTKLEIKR"
  experimental.value: 0.000261
- binder: "F1.62.9 (antibody, human IgG1, kappa, V domains shown, Human-murine chimeric antibody) VH: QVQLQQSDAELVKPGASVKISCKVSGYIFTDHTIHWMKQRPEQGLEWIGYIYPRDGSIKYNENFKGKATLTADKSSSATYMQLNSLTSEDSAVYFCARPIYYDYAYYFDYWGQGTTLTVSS VL: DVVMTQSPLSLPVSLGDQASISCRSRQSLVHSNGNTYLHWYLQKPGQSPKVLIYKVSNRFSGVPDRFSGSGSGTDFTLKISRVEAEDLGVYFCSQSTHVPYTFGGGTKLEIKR"
  experimental.value: 0.00156
- binder: "F1.9.19 (antibody, human IgG1, kappa, V domains shown, Human-murine chimeric antibody) VH: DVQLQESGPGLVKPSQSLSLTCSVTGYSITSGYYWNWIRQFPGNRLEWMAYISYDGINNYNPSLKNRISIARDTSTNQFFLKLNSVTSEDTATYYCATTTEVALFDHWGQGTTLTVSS VL: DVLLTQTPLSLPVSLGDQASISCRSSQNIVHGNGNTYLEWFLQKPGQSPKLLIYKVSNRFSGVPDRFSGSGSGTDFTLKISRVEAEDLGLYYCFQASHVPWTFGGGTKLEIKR"
  experimental.value: 0.000317
